The measured values listed here are drawn from patent US20220162192A1.

Overview of recorded pIC50 for various compounds
- experimental.target: Recombinant wild type LRRK2 protein (Homo sapiens, UniProt Q5S007)
- Construct: purchased Life Technologies PR8604B
- Sequence (Q5S007 whole entry): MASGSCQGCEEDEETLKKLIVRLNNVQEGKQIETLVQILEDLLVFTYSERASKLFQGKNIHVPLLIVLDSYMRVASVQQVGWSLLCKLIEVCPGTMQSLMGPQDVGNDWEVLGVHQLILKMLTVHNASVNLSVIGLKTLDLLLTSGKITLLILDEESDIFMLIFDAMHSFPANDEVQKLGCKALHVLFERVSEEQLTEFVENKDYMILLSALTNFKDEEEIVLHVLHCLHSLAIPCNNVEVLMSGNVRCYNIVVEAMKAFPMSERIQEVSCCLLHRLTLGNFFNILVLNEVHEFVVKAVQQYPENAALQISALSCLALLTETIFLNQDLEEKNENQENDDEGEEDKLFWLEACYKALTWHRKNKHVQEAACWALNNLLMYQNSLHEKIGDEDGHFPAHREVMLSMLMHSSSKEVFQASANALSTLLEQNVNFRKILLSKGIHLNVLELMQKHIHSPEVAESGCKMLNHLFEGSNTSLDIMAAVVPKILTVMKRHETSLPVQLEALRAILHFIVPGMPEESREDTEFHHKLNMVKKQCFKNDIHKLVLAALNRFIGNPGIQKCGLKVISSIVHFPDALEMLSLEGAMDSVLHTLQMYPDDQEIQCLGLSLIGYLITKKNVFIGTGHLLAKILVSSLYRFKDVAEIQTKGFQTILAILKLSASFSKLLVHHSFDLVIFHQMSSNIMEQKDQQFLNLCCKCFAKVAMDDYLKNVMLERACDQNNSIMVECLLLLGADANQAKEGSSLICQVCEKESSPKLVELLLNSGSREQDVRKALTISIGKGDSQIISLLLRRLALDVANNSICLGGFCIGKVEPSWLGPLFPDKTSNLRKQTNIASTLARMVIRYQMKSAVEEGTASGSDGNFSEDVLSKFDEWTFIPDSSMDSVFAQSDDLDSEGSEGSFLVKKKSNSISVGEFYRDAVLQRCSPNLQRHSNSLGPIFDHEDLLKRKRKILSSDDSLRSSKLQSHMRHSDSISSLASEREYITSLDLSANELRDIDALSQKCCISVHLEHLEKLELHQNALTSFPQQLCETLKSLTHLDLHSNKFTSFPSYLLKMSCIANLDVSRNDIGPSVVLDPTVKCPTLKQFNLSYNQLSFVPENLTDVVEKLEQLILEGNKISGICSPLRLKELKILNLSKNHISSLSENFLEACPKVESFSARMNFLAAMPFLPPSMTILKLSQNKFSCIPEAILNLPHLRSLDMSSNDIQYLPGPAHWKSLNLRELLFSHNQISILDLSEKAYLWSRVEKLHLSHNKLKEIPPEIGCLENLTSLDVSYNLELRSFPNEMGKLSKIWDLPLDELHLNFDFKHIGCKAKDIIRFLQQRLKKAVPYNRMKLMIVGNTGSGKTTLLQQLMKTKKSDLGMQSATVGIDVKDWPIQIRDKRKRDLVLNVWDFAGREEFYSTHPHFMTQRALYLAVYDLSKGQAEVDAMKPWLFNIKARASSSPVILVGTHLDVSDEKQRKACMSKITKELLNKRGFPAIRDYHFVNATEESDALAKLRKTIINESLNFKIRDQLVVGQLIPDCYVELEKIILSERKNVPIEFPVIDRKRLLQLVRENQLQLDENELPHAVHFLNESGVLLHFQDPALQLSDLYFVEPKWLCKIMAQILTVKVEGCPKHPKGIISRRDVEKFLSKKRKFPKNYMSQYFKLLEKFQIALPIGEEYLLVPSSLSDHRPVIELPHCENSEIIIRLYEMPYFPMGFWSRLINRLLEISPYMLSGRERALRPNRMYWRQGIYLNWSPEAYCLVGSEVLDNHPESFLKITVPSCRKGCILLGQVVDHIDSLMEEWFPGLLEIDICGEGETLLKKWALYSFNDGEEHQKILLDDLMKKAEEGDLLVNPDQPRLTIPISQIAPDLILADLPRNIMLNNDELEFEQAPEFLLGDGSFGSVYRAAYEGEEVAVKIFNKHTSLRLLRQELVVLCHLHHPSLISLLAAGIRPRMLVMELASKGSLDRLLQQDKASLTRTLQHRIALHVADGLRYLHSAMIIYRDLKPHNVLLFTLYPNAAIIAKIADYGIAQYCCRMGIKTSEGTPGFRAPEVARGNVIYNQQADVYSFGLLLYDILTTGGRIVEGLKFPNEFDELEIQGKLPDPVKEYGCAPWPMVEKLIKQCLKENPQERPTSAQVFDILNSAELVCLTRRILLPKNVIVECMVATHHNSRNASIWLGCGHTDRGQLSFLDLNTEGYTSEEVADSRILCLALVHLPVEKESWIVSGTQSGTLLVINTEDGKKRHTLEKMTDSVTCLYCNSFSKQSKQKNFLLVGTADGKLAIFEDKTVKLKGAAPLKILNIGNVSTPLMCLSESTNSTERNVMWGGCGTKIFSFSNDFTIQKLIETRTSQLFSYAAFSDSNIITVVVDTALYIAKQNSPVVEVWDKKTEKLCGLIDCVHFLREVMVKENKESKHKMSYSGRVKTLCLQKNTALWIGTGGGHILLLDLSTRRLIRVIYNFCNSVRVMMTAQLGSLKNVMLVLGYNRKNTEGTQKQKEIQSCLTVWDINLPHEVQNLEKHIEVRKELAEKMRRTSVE
- assay.overview: LanthaScreen Kinase Activity Assay (TR-FRET), wild type LRRK2
- Assay type: biochemical
- reported.conditions: class symbols; 25 μM ATP, 400 nM LRRKtide, 2.9 nM kinase, 60 min at room temperature; read-out: LRRK2 WT IC50
- Protocol: LRRK2 kinase activity was measured using a LanthaScreen™ Kinase Activity Assay from ThermoFisher Scientific. Recombinant wild type or G2019S-LRRK2 protein (Life Technologies, PR8604B or PV4881, respectively), was incubated with a fluorescein-labeled peptide substrate called LRRKtide that is based upon ezrin/radixin/moesin (ERM) (Life Technologies, PV4901) in the presence of ATP and serially diluted compound. […]
pIC50: −log10 of the molar value.

{"compound": "Cc1cc2cnnn2c(C)c1C(=O)Nc1ccc2[nH]nc(-c3ccco3)c2c1 [Example 155]", "pIC50": "≥ 7.00"}
{"compound": "Cc1cc2[nH]nnc2c(C)c1C(=O)Nc1ccc2[nH]nc(C)c2c1 [Example 11]", "pIC50": "5.00 to 6.00"}
{"compound": "Cc1cc(C(=O)Nc2ccc3[nH]nc(-c4ccncc4)c3c2)cc2nn[nH]c12 [Example 13]", "pIC50": "6.00 to 7.00"}
{"compound": "Cn1cc2c(n1)CCC(C(=O)Nc1ccc3[nH]nc(-c4ccoc4)c3c1)C2 (single isomer, unassigned) [Example 161d]", "pIC50": "6.00 to 7.00"}
{"compound": "O=C(Nc1ccc2[nH]nc(-c3ccoc3)c2c1)c1ccc2nccn2c1 [Example 119]", "pIC50": "6.00 to 7.00"}
{"compound": "O=C(Nc1ccc2[nH]nc(-c3ccoc3)c2c1)c1cn2cccnc2n1 [Example 128]", "pIC50": "6.00 to 7.00"}
{"compound": "O=C(Nc1ccc2[nH]nc(-c3ccccc3)c2c1)c1cc2[nH]ncc2cc1C(F)(F)F [Example 70]", "pIC50": "6.00 to 7.00"}
{"compound": "O=C(Nc1ccc2[nH]nc(-c3ccoc3)c2c1)C1CCc2cncn2C1 (single isomer, unassigned) [Example 173b]", "pIC50": "5.00 to 6.00"}

* * *

- experimental.target: Recombinant G2019S-LRRK2 protein (Homo sapiens, UniProt Q5S007, G2019S)
- Construct: purchased Life Technologies PV4881
- Sequence (Q5S007 whole entry G2019S): as the sequence (Q5S007 whole entry) above, with G2019S counted along it
- assay.overview: LanthaScreen Kinase Activity Assay (TR-FRET), G2019S-LRRK2
- Format: biochemical
- reported.conditions: class symbols; 25 μM ATP, 400 nM LRRKtide, 2.9 nM kinase, 60 min at room temperature
pIC50: −log10 of the molar value.
measurement.label: pIC50

{"molecule": "Cc1n[nH]c2ccc(NC(=O)c3ccn4cnnc4c3)cc12", "obs.value": "5.00 to 6.00"}
{"molecule": "Cc1n[nH]c2ccc(NC(=O)c3cc4nn[nH]c4cc3C(F)(F)F)cc12", "obs.value": "5.00 to 6.00"}
{"molecule": "COc1cnccc1-c1n[nH]c2ccc(NC(=O)c3c(F)cc4c(cnn4C)c3F)cc12", "obs.value": "≥ 7.00"}
{"molecule": "Cc1c(C(=O)Nc2ccc3[nH]nc(-c4ccoc4)c3c2)cnc2cncn12", "obs.value": "≥ 7.00"}
{"molecule": "Cc1cc2nncn2c(C)c1C(=O)Nc1ccc2[nH]nc(C)c2c1", "obs.value": "≥ 7.00"}
{"molecule": "Cn1ncc2c(F)c(C(=O)Nc3ccc4[nH]nc(C5CCOC5)c4c3)c(F)cc21 (stereo not drawn)", "obs.value": "6.00 to 7.00"}
{"molecule": "Cc1c(C(=O)Nc2ccc3[nH]nc(-c4ccccc4)c3c2)ccc2cncn12", "obs.value": "≥ 7.00"}
{"molecule": "Cc1cc2nncn2c(C)c1C(=O)Nc1ccc2[nH]nc(-c3ccoc3)c2c1", "obs.value": "≥ 7.00"}
{"molecule": "CCCc1n[nH]c2ccc(NC(=O)c3c(F)cc4c(cnn4C)c3F)cc12", "obs.value": "≥ 7.00"}

* * *

- experimental.target: Recombinant wild type LRRK2 protein (Homo sapiens)
- Construct: purchased Life Technologies PR8604B
- assay.overview: LanthaScreen Kinase Activity Assay (TR-FRET), wild type LRRK2
- Assay type: biochemical
- reported.conditions: class symbols; 25 μM ATP, 400 nM LRRKtide, 2.9 nM kinase, 60 min at room temperature; read-out: LRRK2 WT IC50
pIC50: −log10 of the molar value.

{"compound": "Cn1ncc2c(F)c(C(=O)Nc3ccc4[nH]nc(C(F)(F)F)c4c3)c(F)cc21", "pIC50": "6.00 to 7.00"}
{"compound": "Cc1cn2cncc2cc1C(=O)Nc1ccc2[nH]nc(-c3ccco3)c2c1", "pIC50": "≥ 7.00"}
{"compound": "Cc1n[nH]c2ccc(NC(=O)c3ccn4cnnc4c3)cc12", "pIC50": "5.00 to 6.00"}
{"compound": "Cn1cc2nc(C(=O)Nc3ccc4[nH]nc(-c5cnco5)c4c3)ccc2n1", "pIC50": "6.00 to 7.00"}
{"compound": "Cc1cc2nncn2c(C)c1C(=O)Nc1ccc2[nH]nc(C)c2c1", "pIC50": "6.00 to 7.00"}
{"compound": "O=C(Nc1ccc2[nH]nc(-c3ccoc3)c2c1)C1CCc2cncn2C1 (single isomer, unassigned) [Example 173a]", "pIC50": "6.00 to 7.00"}
{"compound": "Cn1ncc2c(F)c(C(=O)Nc3ccc4[nH]nc(-c5cncc(N6CCOCC6)c5)c4c3)c(F)cc21", "pIC50": "≥ 7.00"}
{"compound": "Cc1ccccc1-c1n[nH]c2ccc(NC(=O)c3c(F)cc4c(cnn4C)c3F)cc12", "pIC50": "5.00 to 6.00"}

* * *

- experimental.target: Recombinant G2019S-LRRK2 protein (Homo sapiens, UniProt Q5S007, G2019S)
- assay.overview: LanthaScreen Kinase Activity Assay (TR-FRET), G2019S-LRRK2
- reported.conditions: class symbols; 25 μM ATP, 400 nM LRRKtide, 2.9 nM kinase, 60 min at room temperature
pIC50: −log10 of the molar value.
Overview of recorded pIC50 for various molecules

{"molecule": "COc1cccc(-c2n[nH]c3ccc(NC(=O)c4c(F)cc5c(cnn5C)c4F)cc23)c1", "pIC50": "≥ 7.00"}
{"molecule": "Cn1cnc2cc(C(=O)Nc3ccc4[nH]nc(-c5ccoc5)c4c3)ccc21", "pIC50": "6.00 to 7.00"}
{"molecule": "Cn1ncc2c1CCC(C(=O)Nc1ccc3[nH]nc(-c4ccoc4)c3c1)C2 (single isomer, unassigned) [Example 161b]", "pIC50": "≥ 7.00"}
{"molecule": "Cc1cc2c(C)ncn2c(C)c1C(=O)Nc1ccc2[nH]nc(C)c2c1", "pIC50": "≥ 7.00"}

* * *

- experimental.target: Recombinant G2019S-LRRK2 protein (Homo sapiens, UniProt Q5S007, G2019S)
- assay.overview: LanthaScreen Kinase Activity Assay (TR-FRET), G2019S-LRRK2
- reported.conditions: class symbols; 25 μM ATP, 400 nM LRRKtide, 2.9 nM kinase, 60 min at room temperature
Overview of recorded IC50 for various compounds

{"compound": "Cn1cnc2ccc(C(=O)Nc3ccc4[nH]nc(-c5ccoc5)c4c3)cc21 [Example 131]", "experimental.target": "Recombinant G2019S-LRRK2 protein (Homo sapiens, UniProt Q5S007, G2019S)", "IC50": "≤ 100 nM"}
{"compound": "Cn1ncc2c(F)c(C(=O)Nc3ccc4[nH]nc(-c5ccc(N6CCOCC6)cc5)c4c3)c(F)cc21 [Example 94]", "experimental.target": "Recombinant G2019S-LRRK2 protein (Homo sapiens, UniProt Q5S007, G2019S)", "IC50": "≤ 100 nM"}
{"compound": "Cc1c(C(=O)Nc2ccc3[nH]nc(-c4ccccc4)c3c2)ccn2nncc12 [Example 149]", "experimental.target": "Recombinant G2019S-LRRK2 protein (Homo sapiens, UniProt Q5S007, G2019S)", "IC50": "≤ 100 nM"}
{"compound": "Cc1cc2c(cnn2C)nc1C(=O)Nc1ccc2[nH]nc(-c3cnco3)c2c1 [Example 160]", "experimental.target": "Recombinant G2019S-LRRK2 protein (Homo sapiens, UniProt Q5S007, G2019S)", "IC50": "≤ 100 nM"}
{"compound": "Cc1ccc(-c2n[nH]c3ccc(NC(=O)c4c(F)cc5c(cnn5C)c4F)cc23)s1 [Example 97]", "experimental.target": "Recombinant G2019S-LRRK2 protein (Homo sapiens, UniProt Q5S007, G2019S)", "IC50": "≤ 100 nM"}
{"compound": "Cc1nc2cncn2c(C)c1C(=O)Nc1ccc2[nH]nc(-c3ccoc3)c2c1 [Example 112]", "experimental.target": "Recombinant G2019S-LRRK2 protein (Homo sapiens, UniProt Q5S007, G2019S)", "IC50": "≤ 100 nM"}
{"compound": "Cc1cc2cn[nH]c2cc1C(=O)Nc1ccc2[nH]nc(-c3ccccc3)c2c1 [Example 23]", "experimental.target": "Recombinant G2019S-LRRK2 protein (Homo sapiens, UniProt Q5S007, G2019S)", "IC50": "≤ 100 nM"}
{"compound": "O=C(Nc1ccc2[nH]nc(-c3ccoc3)c2c1)C1CCc2cncn2C1 (single isomer, unassigned) [Example 173a]", "experimental.target": "Recombinant G2019S-LRRK2 protein (Homo sapiens, UniProt Q5S007, G2019S)", "IC50": "≤ 100 nM"}
{"compound": "Cc1cc(-c2n[nH]c3ccc(NC(=O)c4c(F)cc5c(cnn5C)c4F)cc23)n(C)n1 [Example 79]", "experimental.target": "Recombinant G2019S-LRRK2 protein (Homo sapiens, UniProt Q5S007, G2019S)", "IC50": "100 to 1000 nM"}
{"compound": "Cn1cc2c(n1)CCC(C(=O)Nc1ccc3[nH]nc(-c4ccoc4)c3c1)C2 (single isomer, unassigned) [Example 161d]", "experimental.target": "Recombinant G2019S-LRRK2 protein (Homo sapiens, UniProt Q5S007, G2019S)", "IC50": "≤ 100 nM"}
{"compound": "Cc1cc2[nH]cnc2cc1C(=O)Nc1ccc2[nH]nc(-c3ccccc3)c2c1 [Example 19]", "experimental.target": "Recombinant G2019S-LRRK2 protein (Homo sapiens, UniProt Q5S007, G2019S)", "IC50": "≤ 100 nM"}
{"compound": "Cc1cn2cnnc2c(C)c1C(=O)Nc1ccc2[nH]nc(-c3ccccc3)c2c1 [Example 57]", "experimental.target": "Recombinant G2019S-LRRK2 protein (Homo sapiens, UniProt Q5S007, G2019S)", "IC50": "≤ 100 nM"}
{"compound": "Cc1nc2cncn2c(C)c1C(=O)Nc1ccc2[nH]nc(I)c2c1 [Example 111]", "experimental.target": "Recombinant G2019S-LRRK2 protein (Homo sapiens, UniProt Q5S007, G2019S)", "IC50": "≤ 100 nM"}
{"compound": "Cn1ncc2c(F)c(C(=O)Nc3ccc4[nH]nc(-c5ncco5)c4c3)c(F)cc21 [Example 138]", "experimental.target": "Recombinant G2019S-LRRK2 protein (Homo sapiens, UniProt Q5S007, G2019S)", "IC50": "≤ 100 nM"}
{"compound": "O=C(Nc1ccc2[nH]nc(-c3ccoc3)c2c1)C1CCc2nncn2C1 (single isomer, unassigned) [Example 162b]", "experimental.target": "Recombinant G2019S-LRRK2 protein (Homo sapiens, UniProt Q5S007, G2019S)", "IC50": "≤ 100 nM"}
{"compound": "Cc1cc2[nH]ccc2cc1C(=O)Nc1ccc2[nH]nc(-c3ccccc3)c2c1 [Example 20]", "experimental.target": "Recombinant G2019S-LRRK2 protein (Homo sapiens, UniProt Q5S007, G2019S)", "IC50": "≤ 100 nM"}
{"compound": "Cn1ncc2c1CCC(C(=O)Nc1ccc3[nH]nc(-c4ccoc4)c3c1)C2 (single isomer, unassigned) [Example 161a]", "experimental.target": "Recombinant G2019S-LRRK2 protein (Homo sapiens, UniProt Q5S007, G2019S)", "IC50": "≤ 100 nM"}
{"compound": "Cc1cc2cnnn2cc1C(=O)Nc1ccc2[nH]nc(-c3ccccc3)c2c1 [Example 43]", "experimental.target": "Recombinant G2019S-LRRK2 protein (Homo sapiens, UniProt Q5S007, G2019S)", "IC50": "≤ 100 nM"}
{"compound": "Cn1ncc2c(F)c(C(=O)Nc3ccc4[nH]nc(-c5cnccc5C(F)(F)F)c4c3)c(F)cc21 [Example 91]", "experimental.target": "Recombinant G2019S-LRRK2 protein (Homo sapiens, UniProt Q5S007, G2019S)", "IC50": "100 to 1000 nM"}
{"compound": "Cn1ncc2c(F)c(C(=O)Nc3ccc4[nH]nc(-c5ccon5)c4c3)c(F)cc21 [Example 135]", "experimental.target": "Recombinant G2019S-LRRK2 protein (Homo sapiens, UniProt Q5S007, G2019S)", "IC50": "≤ 100 nM"}
{"compound": "Cc1n[nH]c2ccc(NC(=O)c3ccc4[nH]nnc4c3C#N)cc12 [Example 14]", "experimental.target": "Recombinant G2019S-LRRK2 protein (Homo sapiens, UniProt Q5S007, G2019S)", "IC50": "1000 to 10000 nM"}
{"compound": "O=C(Nc1ccc2[nH]nc(-c3ccoc3)c2c1)c1cn2cccnc2n1 [Example 128]", "experimental.target": "Recombinant G2019S-LRRK2 protein (Homo sapiens, UniProt Q5S007, G2019S)", "IC50": "100 to 1000 nM"}
{"compound": "Cc1cc2c(cnn2C)cc1C(=O)Nc1ccc2[nH]nc(-c3ccoc3)c2c1 [Example 158]", "experimental.target": "Recombinant G2019S-LRRK2 protein (Homo sapiens, UniProt Q5S007, G2019S)", "IC50": "≤ 100 nM"}
{"compound": "CN(C)c1ccc(-c2n[nH]c3ccc(NC(=O)c4c(F)cc5c(cnn5C)c4F)cc23)cc1 [Example 87]", "experimental.target": "Recombinant G2019S-LRRK2 protein (Homo sapiens, UniProt Q5S007, G2019S)", "IC50": "≤ 100 nM"}
{"compound": "Cn1cc(-c2n[nH]c3ccc(NC(=O)c4c(F)cc5c(cnn5C)c4F)cc23)cn1 [Example 35]", "experimental.target": "Recombinant G2019S-LRRK2 protein (Homo sapiens, UniProt Q5S007, G2019S)", "IC50": "≤ 100 nM"}
{"compound": "Cn1nccc1-c1n[nH]c2ccc(NC(=O)c3c(F)cc4c(cnn4C)c3F)cc12 [Example 96]", "experimental.target": "Recombinant G2019S-LRRK2 protein (Homo sapiens, UniProt Q5S007, G2019S)", "IC50": "≤ 100 nM"}
